The reported numbers originate from ChEMBL document CHEMBL1150367.

Biological target: UniProt:P28223
Sequence (P28223 whole entry): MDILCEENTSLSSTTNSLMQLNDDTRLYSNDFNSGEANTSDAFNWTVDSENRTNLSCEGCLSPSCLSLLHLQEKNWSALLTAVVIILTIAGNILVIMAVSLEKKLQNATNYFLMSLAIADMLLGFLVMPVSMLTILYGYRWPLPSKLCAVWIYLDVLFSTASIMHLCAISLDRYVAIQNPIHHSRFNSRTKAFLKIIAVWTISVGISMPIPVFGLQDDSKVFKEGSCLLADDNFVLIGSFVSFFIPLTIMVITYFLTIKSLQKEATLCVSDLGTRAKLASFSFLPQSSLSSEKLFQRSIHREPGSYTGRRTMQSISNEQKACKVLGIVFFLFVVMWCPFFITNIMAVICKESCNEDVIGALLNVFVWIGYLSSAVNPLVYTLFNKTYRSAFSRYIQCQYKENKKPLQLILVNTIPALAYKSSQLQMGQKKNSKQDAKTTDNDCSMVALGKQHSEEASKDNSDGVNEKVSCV
Assay: Displacement of [3H]ketanserin from human 5HT2A receptor expressed in human A549 cells
Type: cell-based
experimental-readout: pKi
Give bare numbers, as −log10 of the molar value.

Request - read-out pKi | tested on UniProt:P28223 | compound CN(C)CCCSc1ccccc1NC(=O)/C=C/c1ccccc1
7.77

====

Biological target: Mu-type opioid receptor (Homo sapiens)
Sequence (P35372 whole entry): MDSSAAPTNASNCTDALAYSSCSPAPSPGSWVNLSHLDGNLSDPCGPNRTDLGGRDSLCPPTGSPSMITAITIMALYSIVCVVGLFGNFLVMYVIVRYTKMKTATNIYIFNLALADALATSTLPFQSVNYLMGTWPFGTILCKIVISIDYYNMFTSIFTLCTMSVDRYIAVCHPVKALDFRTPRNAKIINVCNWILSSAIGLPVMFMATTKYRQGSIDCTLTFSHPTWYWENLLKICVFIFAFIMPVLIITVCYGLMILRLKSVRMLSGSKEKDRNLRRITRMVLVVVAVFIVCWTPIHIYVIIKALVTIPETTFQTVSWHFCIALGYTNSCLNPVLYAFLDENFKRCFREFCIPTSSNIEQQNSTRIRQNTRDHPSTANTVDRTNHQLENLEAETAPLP
experimental-readout: pKi
Give bare numbers, as −log10 of the molar value.

Request - read-out pKi | tested on Mu-type opioid receptor (Homo sapiens) | compound [3H]C([3H])([3H])Oc1cc(I)c(OC)cc1CCNCc1ccccc1OC([3H])([3H])[3H]
7.09

====

Molecular target: Muscarinic acetylcholine receptor M5 (Homo sapiens)
Sequence (P08912 whole entry): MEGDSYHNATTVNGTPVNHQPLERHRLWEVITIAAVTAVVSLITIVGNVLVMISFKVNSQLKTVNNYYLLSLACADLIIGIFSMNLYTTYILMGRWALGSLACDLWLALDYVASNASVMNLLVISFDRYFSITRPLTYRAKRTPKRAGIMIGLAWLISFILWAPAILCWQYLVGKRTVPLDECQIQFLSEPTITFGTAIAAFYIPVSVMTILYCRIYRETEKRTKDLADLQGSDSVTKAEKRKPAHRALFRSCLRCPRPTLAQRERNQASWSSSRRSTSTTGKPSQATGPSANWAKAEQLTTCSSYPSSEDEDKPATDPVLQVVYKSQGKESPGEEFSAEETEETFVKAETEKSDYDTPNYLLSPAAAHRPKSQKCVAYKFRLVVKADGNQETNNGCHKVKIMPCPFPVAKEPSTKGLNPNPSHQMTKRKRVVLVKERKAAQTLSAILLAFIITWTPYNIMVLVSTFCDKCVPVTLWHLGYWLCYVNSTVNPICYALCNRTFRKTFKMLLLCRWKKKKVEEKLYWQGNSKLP
pKi: −log10 of the molar value.
experimental-readout: pKi

Quick check: pKi of [3H]C([3H])([3H])Oc1cc(I)c(OC)cc1CCNCc1ccccc1OC([3H])([3H])[3H] ?
< 6.30

====

Target: UniProtKB P08172
Sequence (P08172 whole entry): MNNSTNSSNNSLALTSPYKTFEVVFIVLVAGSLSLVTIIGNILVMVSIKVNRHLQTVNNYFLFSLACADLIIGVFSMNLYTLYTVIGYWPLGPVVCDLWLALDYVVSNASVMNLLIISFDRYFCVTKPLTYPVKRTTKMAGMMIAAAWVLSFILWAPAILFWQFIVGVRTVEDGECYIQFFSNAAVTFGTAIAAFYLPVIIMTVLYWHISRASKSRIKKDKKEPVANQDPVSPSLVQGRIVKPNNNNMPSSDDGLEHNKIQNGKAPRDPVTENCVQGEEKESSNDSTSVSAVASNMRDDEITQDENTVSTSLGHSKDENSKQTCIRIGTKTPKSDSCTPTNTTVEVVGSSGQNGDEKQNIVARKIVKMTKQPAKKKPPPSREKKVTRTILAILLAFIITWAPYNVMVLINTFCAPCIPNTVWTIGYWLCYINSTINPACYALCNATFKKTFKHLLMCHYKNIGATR
pKi: −log10 of the molar value.
experimental-readout: pKi

Quick check: pKi of [3H]C([3H])([3H])Oc1cc(I)c(OC)cc1CCNCc1ccccc1OC([3H])([3H])[3H] ?
< 6.30

====

Target: 5-hydroxytryptamine receptor 5A (Homo sapiens)
Sequence (P47898 whole entry): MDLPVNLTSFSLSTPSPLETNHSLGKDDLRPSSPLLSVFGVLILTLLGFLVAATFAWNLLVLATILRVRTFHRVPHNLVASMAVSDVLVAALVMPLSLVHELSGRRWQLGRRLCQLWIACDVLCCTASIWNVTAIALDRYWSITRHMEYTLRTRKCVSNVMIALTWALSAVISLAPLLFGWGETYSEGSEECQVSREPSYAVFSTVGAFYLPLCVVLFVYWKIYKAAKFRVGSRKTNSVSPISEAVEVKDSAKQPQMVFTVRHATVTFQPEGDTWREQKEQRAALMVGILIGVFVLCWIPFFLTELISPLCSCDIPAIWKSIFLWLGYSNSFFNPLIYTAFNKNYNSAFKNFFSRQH
experimental-readout: Ki

Request - read-out Ki | tested on 5-hydroxytryptamine receptor 5A (Homo sapiens) | molecule [3H]C([3H])([3H])Oc1cc(I)c(OC)cc1CCNCc1ccccc1OC([3H])([3H])[3H]
> 500 nM
